biological target: PAR2 (HT-29 cells, SLIGKV activation) (Homo sapiens); construct: host or cells: HT-29 cells; test: Ca FLIPR TETRA assay, ANTAGONIST mode, stimulation with 8 μM SLIGKV; type: cell-based; settings: HT-29 cells, stimulation with 8 μM SLIGKV
Sequence (P55085 26-397): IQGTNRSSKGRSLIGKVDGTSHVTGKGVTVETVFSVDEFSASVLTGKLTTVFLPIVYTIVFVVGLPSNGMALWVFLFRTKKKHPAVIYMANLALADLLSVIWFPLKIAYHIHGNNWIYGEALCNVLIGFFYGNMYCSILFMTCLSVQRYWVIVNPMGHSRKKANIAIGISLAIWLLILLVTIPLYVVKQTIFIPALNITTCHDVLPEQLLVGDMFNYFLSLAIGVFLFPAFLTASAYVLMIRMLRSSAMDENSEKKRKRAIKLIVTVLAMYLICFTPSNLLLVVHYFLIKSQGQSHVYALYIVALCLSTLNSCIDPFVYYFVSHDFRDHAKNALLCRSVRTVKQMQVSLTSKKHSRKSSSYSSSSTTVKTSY
PROPERTY_MEASURED: IC50 (nM)
The figure you give is taken to be in nM; do not add the unit.

For orientation, consider the following solved cases.
O=C(c1cn2nc(-c3ccc(F)cc3)cc(C(F)(F)F)c2n1)N1CCC(n2cc(-c3ccccc3)[nH]c2=O)CC1 [Compound I-80]    54
CCc1cc(-c2ccc(F)cc2)nn2cc(C(=O)N3CCN(C(=O)C4(O)CCC4)CC3(C)C)nc12 [Compound I-162]    110
NC(=O)C1CCCCN1C(=O)c1cn2nc(-c3ccc(F)cc3)cc(C(F)(F)F)c2n1 (centres unmarked) [Compound I-81]    6700
CCOCCC(=O)N1CCN(C(=O)c2cn3nc(-c4ccc(F)cc4)cc(C(C)C)c3n2)C[C@@H]1C [Compound I-143]    41

Lookup: What value of IC50 has been recorded for this entry: CC(C)(C)OC(=O)N1CCCN(C(=O)c2cn3nc(-c4ccc(F)cc4)cc(C(F)(F)F)c3n2)CC1 [Compound I-84]
Found: 790

Lookup: What value of IC50 has been recorded for this entry: CC(C)c1cc(-c2ccc(F)cc2)nn2cc(C(=O)N3CCC4(CC3)CNC(=O)O4)nc12 [Compound I-24]
Found: 220

Lookup: What value of IC50 has been recorded for this entry: C[C@H]1CN(C(=O)c2cn3nc(-c4ccc(F)cc4)cc(C(F)(F)F)c3n2)CCN1C(=O)[C@@H](CC1CCCCC1)NC(=O)OC(C)(C)C [Compound I-15]
Found: 47

Lookup: What value of IC50 has been recorded for this entry: Cc1cc(-c2ccc(F)cc2)nn2cc(C(=O)N3CCN(C(=O)OCc4ccccc4)[C@@H](C)C3)nc12 [Compound I-8]
Found: 180

Lookup: What value of IC50 has been recorded for this entry: Cc1noc(C)c1CCC(=O)N1CCN(C(=O)c2cn3nc(-c4ccc(F)cc4)cc(C(C)C)c3n2)C[C@@H]1C [Compound I-136]
Found: 7

Origin of the recorded values: patent US20190119282A1
